- system under test: hERG channel (Homo sapiens)
- Sequence (Q12809 whole entry): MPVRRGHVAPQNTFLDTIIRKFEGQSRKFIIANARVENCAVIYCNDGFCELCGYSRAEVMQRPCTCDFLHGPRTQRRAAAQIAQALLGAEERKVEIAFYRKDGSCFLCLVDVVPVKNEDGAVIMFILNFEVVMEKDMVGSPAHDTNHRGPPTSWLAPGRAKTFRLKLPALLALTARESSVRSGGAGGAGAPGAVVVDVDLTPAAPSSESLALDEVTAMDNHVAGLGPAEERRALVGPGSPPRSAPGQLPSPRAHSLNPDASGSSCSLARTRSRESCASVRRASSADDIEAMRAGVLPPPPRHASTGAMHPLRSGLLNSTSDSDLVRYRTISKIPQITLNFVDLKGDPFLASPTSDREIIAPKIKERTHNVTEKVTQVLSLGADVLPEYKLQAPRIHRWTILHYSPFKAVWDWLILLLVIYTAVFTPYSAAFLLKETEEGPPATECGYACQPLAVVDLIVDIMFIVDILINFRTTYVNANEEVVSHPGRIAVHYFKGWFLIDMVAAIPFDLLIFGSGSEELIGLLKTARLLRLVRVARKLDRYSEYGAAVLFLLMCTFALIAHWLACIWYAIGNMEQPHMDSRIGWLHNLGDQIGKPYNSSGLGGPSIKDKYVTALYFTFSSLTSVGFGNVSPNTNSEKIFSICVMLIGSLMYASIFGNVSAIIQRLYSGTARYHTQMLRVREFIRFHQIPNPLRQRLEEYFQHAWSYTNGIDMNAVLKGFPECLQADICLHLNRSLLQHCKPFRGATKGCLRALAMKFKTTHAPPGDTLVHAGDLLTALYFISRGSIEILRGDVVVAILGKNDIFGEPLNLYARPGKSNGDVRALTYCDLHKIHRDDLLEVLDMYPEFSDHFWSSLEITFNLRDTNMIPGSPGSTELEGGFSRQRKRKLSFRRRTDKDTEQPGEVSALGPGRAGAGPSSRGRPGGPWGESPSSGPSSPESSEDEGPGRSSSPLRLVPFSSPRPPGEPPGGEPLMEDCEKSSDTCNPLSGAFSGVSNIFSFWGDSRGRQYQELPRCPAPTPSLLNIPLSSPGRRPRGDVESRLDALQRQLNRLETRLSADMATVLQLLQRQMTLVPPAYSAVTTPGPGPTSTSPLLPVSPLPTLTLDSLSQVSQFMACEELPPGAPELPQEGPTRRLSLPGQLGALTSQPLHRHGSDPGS
- assay summary: hERG inhibition assay (automated patch-clamp, CHO-K1 Tet-On hERG cells)
- assay setup: patch-clamp, ± SD
pIC50: −log10 of the molar value.
Recorded pIC50 values for a group of molecules are listed next.
measured attribute: pIC50

| compound | system under test | measured attribute | number |
| --- | --- | --- | --- |
| CCOc1ccc(-n2c(SCC(=O)NCc3ccc(C)cc3)nc3sc4c(c3c2=O)CCN(C(C)=O)C4)cc1 | hERG channel (Homo sapiens) | pIC50 | 4.66 |
| CCCN(CCC)C(=O)CSc1nc2sc3c(c2c(=O)n1-c1ccc(OCC)cc1)CCN(C)C3 | hERG channel (Homo sapiens) | pIC50 | 4.89 |
| CCOc1ccc(-n2c(SCC(=O)Nc3ccc(OC)c(OC)c3)nc3sc4c(c3c2=O)CCN(C(C)=O)C4)cc1 | hERG channel (Homo sapiens) | pIC50 | 4.71 |
| CCCCN(CCCC)C(=O)CSc1nc2sc3c(c2c(=O)n1-c1ccc(OCC)cc1)CCN(C(C)=O)C3 | hERG channel (Homo sapiens) | pIC50 | 5.61 |
| CCOc1ccc(-n2c(SCC(=O)N(CC)Cc3ccccc3)nc3sc4c(c3c2=O)CCN(C(C)=O)C4)cc1 | hERG channel (Homo sapiens) | pIC50 | 5.56 |
| CCOc1ccc(-n2c(SCC(=O)N3CCN(c4ccccc4)CC3)nc3sc4c(c3c2=O)CCN(C(C)=O)C4)cc1 | hERG channel (Homo sapiens) | pIC50 | 5.05 |
| CCOc1ccc(-n2c(SCC(=O)NC3CCN(C)CC3)nc3sc4c(c3c2=O)CCN(C(C)=O)C4)cc1 | hERG channel (Homo sapiens) | pIC50 | 4.91 |
| CCOc1ccc(-n2c(SCC(=O)NCc3ccccc3)nc3sc4c(c3c2=O)CCN(C(C)=O)C4)cc1 | hERG channel (Homo sapiens) | pIC50 | 5.06 |
| CCOc1ccc(-n2c(SCC(=O)NCc3ccc(Cl)cc3)nc3sc4c(c3c2=O)CCN(C)C4)cc1 | hERG channel (Homo sapiens) | pIC50 | 5.07 |
| CCOc1ccc(-n2c(SCC(=O)NCc3ccccc3)nc3sc4c(c3c2=O)CCN(C)C4)cc1 | hERG channel (Homo sapiens) | pIC50 | 4.82 |
| CCOc1ccc(-n2c(SCC(=O)N(C)Cc3ccccc3)nc3sc4c(c3c2=O)CCN(C)C4)cc1 | hERG channel (Homo sapiens) | pIC50 | 4.97 |
| CCOc1ccc(-n2c(SCC(=O)Nc3ccc(C)cc3)nc3sc4c(c3c2=O)CCN(C)C4)cc1 | hERG channel (Homo sapiens) | pIC50 | 5.25 |
| CCOc1ccc(-n2c(SCC(=O)NCc3ccc(Cl)cc3)nc3sc4c(c3c2=O)CCN(C(C)=O)C4)cc1 | hERG channel (Homo sapiens) | pIC50 | 5.38 |
| CCOc1ccc(-n2c(SCC(=O)N(CC)Cc3ccccc3)nc3sc4c(c3c2=O)CCN(C)C4)cc1 | hERG channel (Homo sapiens) | pIC50 | 5.00 |
| CCCN(CCC)C(=O)CSc1nc2sc3c(c2c(=O)n1-c1ccc(OCC)cc1)CCN(C(C)=O)C3 | hERG channel (Homo sapiens) | pIC50 | 5.23 |
| CCOc1ccc(-n2c(SCC(=O)Nc3ccc(Cl)cc3)nc3sc4c(c3c2=O)CCN(C(C)=O)C4)cc1 | hERG channel (Homo sapiens) | pIC50 | 4.52 |
| CCOc1ccc(-n2c(SCC(=O)N(C)Cc3ccccc3)nc3sc4c(c3c2=O)CCN(C(C)=O)C4)cc1 | hERG channel (Homo sapiens) | pIC50 | 5.19 |
